Taken from patent US8338450B2.

Biological target: human recombinant DPP-IV (Homo sapiens)
Construct: purchased R&D Systems, USA (or produced in-house)
Sequence (P27487 whole entry): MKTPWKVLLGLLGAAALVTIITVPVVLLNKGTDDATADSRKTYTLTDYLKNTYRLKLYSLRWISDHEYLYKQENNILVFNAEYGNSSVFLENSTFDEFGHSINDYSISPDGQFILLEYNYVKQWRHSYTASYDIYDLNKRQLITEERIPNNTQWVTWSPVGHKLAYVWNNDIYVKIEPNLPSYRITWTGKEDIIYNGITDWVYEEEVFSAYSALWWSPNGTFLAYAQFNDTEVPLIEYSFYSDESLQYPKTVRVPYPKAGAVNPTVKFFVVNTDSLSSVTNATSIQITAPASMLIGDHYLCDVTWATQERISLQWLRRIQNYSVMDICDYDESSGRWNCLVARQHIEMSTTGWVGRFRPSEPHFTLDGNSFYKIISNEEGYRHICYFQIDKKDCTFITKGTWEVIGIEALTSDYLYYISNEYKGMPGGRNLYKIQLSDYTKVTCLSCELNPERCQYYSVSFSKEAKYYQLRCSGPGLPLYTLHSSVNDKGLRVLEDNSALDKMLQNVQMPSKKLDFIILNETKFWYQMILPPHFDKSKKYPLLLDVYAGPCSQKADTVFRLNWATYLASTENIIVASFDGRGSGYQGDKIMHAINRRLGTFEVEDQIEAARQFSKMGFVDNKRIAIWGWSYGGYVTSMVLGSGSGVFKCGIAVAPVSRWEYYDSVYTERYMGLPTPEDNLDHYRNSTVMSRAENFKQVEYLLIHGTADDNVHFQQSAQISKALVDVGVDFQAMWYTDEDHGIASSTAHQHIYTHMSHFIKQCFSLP
Assay: Inhibition of human recombinant DPP-IV (Gly-Pro-AMC hydrolysis, fluorometric)
Type: biochemical
Conditions: compound 10 nM; relative to vehicle controls
Quick rule: % inhibition at 10 nM of at least 10 % inhibition at 10 nM means class 1, below that means class 0.

molecule="N#C[C@@H]1C[C@@H]2C[C@@H]2N1C(=O)[C@@H](N)C1CC2CCC(C1)N2C(=O)C1CCCCC1.O=C(O)C(F)(F)F (stereo partly shown)" class_label="class 1"
molecule="N#C[C@@H]1C[C@@H]2C[C@@H]2N1C(=O)[C@H](N)C1CC2CCC(C1)N2C(=O)c1ccnc(F)c1.O=C(O)C(F)(F)F (stereo partly shown)" class_label="class 0"
molecule="N#C[C@@H]1C[C@@H]2C[C@@H]2N1C(=O)[C@@H](N)C1CC2CCC(C1)N2C(=O)NS(=O)(=O)c1ccc(Cl)cc1.O=C(O)C(F)(F)F (stereo partly shown)" class_label="class 0"
molecule="N#C[C@H]1C[C@H]2C[C@H]2N1C(=O)[C@H](N)C1CC2CCC(C1)N2C(=O)c1ccnc(F)c1.O=C(O)C(F)(F)F (stereo partly shown)" class_label="class 0"
molecule="N#C[C@@H]1C[C@@H]2C[C@@H]2N1C(=O)[C@H](N)C1CC2CCC(C1)N2C(=O)c1cnccn1.O=C(O)C(F)(F)F (stereo partly shown)" class_label="class 1"
molecule="N#C[C@@H]1C[C@@H]2C[C@@H]2N1C(=O)[C@@H](N)C1CC2CCC(C1)N2C(=O)c1ccco1.O=C(O)C(F)(F)F (stereo partly shown)" class_label="class 1"
molecule="N[C@H](C(=O)N1CCC[C@H]1CO)C1CC2CCC(C1)N2C(=O)c1ccc2c(c1)OCO2.O=C(O)C(F)(F)F (stereo partly shown)" class_label="class 1"
molecule="CCC(CC)N1C2CCC1CC([C@H](N)C(=O)N1[C@H](C#N)C[C@@H]3C[C@@H]31)C2.O=C(O)C(F)(F)F (stereo partly shown)" class_label="class 1"
molecule="N#Cc1ccc(N2C3CCC2CC([C@H](N)C(=O)N2[C@H](C#N)C[C@@H]4C[C@@H]42)C3)cc1.O=C(O)C(F)(F)F (stereo partly shown)" class_label="class 1"
